- assay info: Volume of distribution at steady state in dog at 1 mg/kg, iv
- Type: ADME, organism-based, Canis lupus familiaris
- particulars: in vivo, read-out: Vdss
measurement label: Vd (L/kg)
Numbers only here, please. The scale is L/kg.

**Q:** Return the recorded Vd value; entry: CC(=O)N1CCN(c2cc(-c3cc(C(F)(F)F)c4c(N)ncnn34)ccc2C#N)C(=O)C1(C)C
**A:** 0.61

====

AUC(0-t) at 24 h values, listed per item
- assay info: AUC (0 to 24 hrs) in Balb/c mouse at 10 mg/kg, po
- Assay type: ADME, organism-based
- Parameters: time < 24 hr, dose 10 mg/kg, route oral
- particulars: in vivo

[[record]]
mol = "CC(=O)N1CCN(c2cc(-c3cc(C(F)(F)F)c4c(N)ncnn34)ccc2C#N)C(=O)C1(C)C"
recorded_result = "17 µM·h"

[[record]]
mol = "CC(=O)N1CCN(c2cccc(-c3cc(-c4cnn(C5CC5)c4)c4c(N)ncnn34)c2)C(=O)C1(C)C"
recorded_result = "1.1 µM·h"


Attention now turns to another entry.
**Q:** Answer with the recorded AUC(0-t) at 24 h of CC(=O)N1CCN(c2cccc(-c3cc(-c4ccnn4CC(F)(F)F)c4c(N)ncnn34)c2)C(=O)C1(C)C only.
**A:** 4.1 µM·h

====

- assay info: Cmax in dog at 2 mg/kg, po
- Assay type: ADME, organism-based, Canis lupus familiaris
- Design: dose 2 mg/kg, route oral
- particulars: in vivo
measurement label: Cmax
For clarity, give the value followed by its unit.

**Q:** Please report the measured Cmax for CC(=O)N1CCN(c2cc(-c3cc(C(F)(F)F)c4c(N)ncnn34)ccc2C#N)C(=O)C1(C)C
**A:** 6.3 µM

====

- System: Plasma
- assay info: Drug uptake in New Zealand White rabbit plasma at 20 mg/kg, iv administered as 10 mins infusion measured up to 30 mins post dose
- Type: ADME, organism-based, Oryctolagus cuniculus
- particulars: in vivo
measurement label: concentration (µM)
// units = µM; emit number, no label

**Q:** Answer with the recorded concentration of CC(=O)N1CCN(c2cc(-c3cc(C(F)(F)F)c4c(N)ncnn34)ccc2C#N)C(=O)C1(C)C only.
**A:** 54

====

- assay info: AUC in rat at 5 mg/kg, po
- Assay type: ADME, organism-based
- particulars: in vivo
measurement label: AUC (µM·h)
// return numeric value only (unit: µM·h, not printed)

**Q:** Give a short answer stating reported AUC for CC(=O)N1CCN(c2cc(-c3cc(C(F)(F)F)c4c(N)ncnn34)ccc2C#N)C(=O)C1(C)C .
**A:** 54

====

- assay info: Clearance in mouse at 3 mg/kg, iv
- Type: ADME, organism-based
- particulars: in vivo
measurement label: clearance (mL/min/kg)
Give just the number in mL/min/kg; leave the unit off.

**Q:** Provide measured clearance value, entry: CC(=O)N1CCN(c2cc(-c3cc(C(F)(F)F)c4c(N)ncnn34)ccc2C#N)C(=O)C1(C)C
**A:** 17

====

The entries below are paired with their reported half-life at 0.5 µM.
- assay info: Half life in mouse liver microsomes aat 0.5 uM preincubated for 6 mins followed by NADPH addition measured after 10 mins by LC-MS/MS analysis
- Type: ADME, microsome
Field: numeric (min). Do not append units.

Illustrative cases are given below, each with its answer.
[[record]]
mol = "CC(=O)N1CCN(c2cc(-c3cc(C(F)(F)F)c4c(N)ncnn34)ccc2C#N)C(=O)C1(C)C"
endpoint_unit = "min"
recorded_result = 72

[[record]]
mol = "CC(=O)N1CCN(c2cccc(-c3cc(C(F)(F)F)c4c(N)ncnn34)c2)C(=O)C1(C)C"
endpoint_unit = "min"
recorded_result = 9


**Q:** Let me know recorded half-life at 0.5 µM for CC(=O)N1CCN(c2cccc(-c3cc(-c4ccnn4CC(F)(F)F)c4c(N)ncnn34)c2)C(=O)C1(C)C , thanks.
**A:** 26

**Q:** # return recorded half-life at 0.5 µM for entry CC(=O)N1CCN(c2cccc(-c3cc(Cl)c4c(N)ncnn34)c2)C(=O)C1(C)C
**A:** 4
